# test_name: logP by HPLC on reversed-phase columns (EEC directive 79/831 Annex V.A8)
# assay_context: pH 2.7
property_label: chromatographic logP
Reply with just the number.

Sample CC(C)[Si](c1ncc(C(O)(c2ccc(Cl)cc2)C2(Oc3ccccc3)CC2)o1)(C(C)C)C(C)C (stereo not shown) — what was its chromatographic logP?
7.36

---

# assay_context: pH 7.8
property_label: log P [c]
Enter the number alone.

Find the recorded log P [c] belonging to OC(c1cnco1)(c1ccc(F)cc1F)C1(Oc2ccc(F)cc2F)CC1 (stereo not shown) and report it.
3.1

What would you report for OC(c1ccc(Br)cc1)(c1cnco1)C1(Oc2ccc(F)cc2)CC1 (stereo not shown) ?
3.52

Others:
# query: log P [c] of entry OC(c1ccc(Br)cc1)(c1cnco1)C1(Oc2ccc(F)cc2F)CC1 (stereo not shown)
3.56

OC(c1ccc(Br)cc1)(c1cnco1)C1(Oc2ccccc2)CC1 (stereo not shown) ?
3.48
